# melting temperature per entry
# Tested on: HeLa Kyoto;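 also: HeLa Kyoto cells synchronized by double thymidine or nocodazole block, proteins quantified by TMT10plex mass spectrometry, three independent biological replicates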
# assayExplanation: melting temperature (median over replicates), in situ; higher = more thermally stable
# experimentalSetup: cell cycle stage: mitosis
recordedMetric: melting temperature (°C)

polymerSequence | recordedMetric | testValue
MTSEVIEDEKQFYSKAKTYWKQIPPTVDGMLGGYGHISSIDINSSRKFLQRFLREGPNKTGTSCALDCGAGIGRITKRLLLPLFREVDMVDITEDFLVQAKTYLGEEGKRVRNYFCCGLQDFTPEPDSYDVIWIQWVIGHLTDQHLAEFLRRCKGSLRPNGIIVIKDNMAQEGVILDDVDSSVCRDLDVVRRIICSAGLSLLAEERQENLPDEIYHVYSFALR [NTMT1] | melting temperature | 51.2
MFSFNMFDHPIPRVFQNRFSTQYRCFSVSMLAGPNDRSDVEKGGKIIMPPSALDQLSRLNITYPMLFKLTNKNSDRMTHCGVLEFVADEGICYLPHWMMQNLLLEEGGLVQVESVNLQVATYSKFQPQSPDFLDITNPKAVLENALRNFACLTTGDVIAINYNEKIYELRVMETKPDKAVSIIECDMNVDFDAPLGYKEPERQVQHEESTEGEADHSGYAGELGFRAFSGSGNRLDGKKKGVEPSPSPIKPGDIKRGIPNYEFKLGKITFIRNSRPLVKKVEEDEAGGRFVAFSGEGQSLRKKGRKP [UFD1L] | melting temperature | 54.3
MSSKKAKTKTTKKRPQRATSNVFAMFDQSQIQEFKEAFNMIDQNRDGFIDKEDLHDMLASLGKNPTDAYLDAMMNEAPGPINFTMFLTMFGEKLNGTDPEDVIRNAFACFDEEATGTIQEDYLRELLTTMGDRFTDEEVDELYREAPIDKKGNFNYIEFTRILKHGAKDKDD [MYL12B] | melting temperature | 52.7
